Provenance of the data: patent US12600709B2

Biological target: human somatostatin receptor subtype 2 (Homo sapiens, UniProt P30874)
Sequence (P30874 whole entry): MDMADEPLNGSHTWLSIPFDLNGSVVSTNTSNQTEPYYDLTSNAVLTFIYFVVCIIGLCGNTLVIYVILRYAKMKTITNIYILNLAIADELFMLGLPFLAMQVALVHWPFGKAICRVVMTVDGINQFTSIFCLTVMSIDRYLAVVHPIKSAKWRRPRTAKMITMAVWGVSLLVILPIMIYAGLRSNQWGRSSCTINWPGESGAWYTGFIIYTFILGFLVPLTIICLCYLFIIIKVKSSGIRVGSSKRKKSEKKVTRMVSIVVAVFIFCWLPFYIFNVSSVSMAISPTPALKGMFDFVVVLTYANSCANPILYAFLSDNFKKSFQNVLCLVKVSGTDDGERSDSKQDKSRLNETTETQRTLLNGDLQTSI
Experiment: cAMP assay for SST2R (inhibition of cAMP in CHO-K1 cells)
Conditions: Table B; inhibition of cAMP via human SST2 receptor; read-out: SST2 potency
pEC50: −log10 of the molar value.
parameter_measured: pEC50

Please review the entries below; each comes with its answer.
Cc1cc(C)cc(NC(=O)c2cncc(-c3cc(C)cc(C)c3)c2N2CC[C@@H](N)C2)c1 (single isomer, unassigned) : > 8.00
N[C@H]1CCN(c2c(C(=O)NC(C3CC3)C3CC3)cncc2-c2cc(F)cc(Cl)c2)C1 : < 6.00
C[C@H](NC(=O)c1cnc(C#N)c(-c2cccc(OC(F)F)c2)c1N1CC[C@](C)(N)C1)C1CC1 : 7.00 to 8.00
Cc1ncc(C(=O)N[C@@H](C)C2CC2)c(N2CC[C@](C)(N)C2)c1-c1cc(F)cc(Cl)c1 : 7.00 to 8.00
COc1ncc(C(=O)N[C@@H](C)C2CC2)c(N2CC[C@](C)(N)C2)c1-c1cncc(Cl)c1 : < 6.00
Cc1ncc(C(=O)NC2CCCCC2)c(N2CC[C@](C)(N)C2)c1-c1ccnc(C(F)(F)F)c1 : < 6.00
CCC(C)CNC(=O)c1cncc(-c2cc(F)cc(F)c2)c1N1CC[C@](C)(N)C1 (stereo partly shown) : 6.00 to 7.00
C[C@]1(N)CCN(c2c(C(=O)NC3CCC(F)(F)CC3)cncc2-c2cc(F)c(F)c(F)c2)C1 : 6.00 to 7.00
Cc1ncc(C(=O)N[C@@H](C)C2CC2)c(N2CC[C@](C)(N)C2)c1-c1cncc(Cl)c1 : < 6.00
Cc1ncc(C(=O)NC23CC(F)(C2)C3)c(N2CC[C@H](N)C2)c1-c1cc(F)cc(Cl)c1 : < 6.00

Hi there! I need pEC50 for each item below, if you can.
1. Cc1cccc2[nH]c(-c3cncc(C(=O)N4CC[C@H]5CCCC54)c3N3CC[C@](C)(N)C3)nc12 (stereo partly shown)
2. COc1ncc(C(=O)N[C@@H](C)C2CC2)c(N2CC[C@](C)(N)C2)c1-c1cccc(OC(F)F)c1
3. Cc1ncc(C(=O)N[C@@H](C)C2CC2)c(N2CC[C@](C)(N)C2)c1-c1ccc(F)c(F)c1
4. Cc1ncc(C(=O)NC2CCC(F)(F)CC2)c(N2CC[C@](C)(N)C2)c1-c1cc(F)cc(F)c1

1: 6.00 to 7.00; 2: 6.00 to 7.00; 3: 6.00 to 7.00; 4: 6.00 to 7.00

Batch request: pEC50 for each of the following compounds.
1. COc1cc(C#N)cc(-c2c(C)ncc(C(=O)NC3CCC(F)(F)CC3)c2N2CC[C@](C)(N)C2)c1
2. Cc1cccc2[nH]c(-c3cncc(C(=O)NC45CC(C4)C5)c3N3CC[C@](C)(N)C3)nc12

< 6.00
6.00 to 7.00

* * *

Provide the reported pEC50 of each item.
Target: human somatostatin receptor subtype 5 (Homo sapiens, UniProt P35346)
Construct: expressed in transfected cells
Sequence (P35346 whole entry): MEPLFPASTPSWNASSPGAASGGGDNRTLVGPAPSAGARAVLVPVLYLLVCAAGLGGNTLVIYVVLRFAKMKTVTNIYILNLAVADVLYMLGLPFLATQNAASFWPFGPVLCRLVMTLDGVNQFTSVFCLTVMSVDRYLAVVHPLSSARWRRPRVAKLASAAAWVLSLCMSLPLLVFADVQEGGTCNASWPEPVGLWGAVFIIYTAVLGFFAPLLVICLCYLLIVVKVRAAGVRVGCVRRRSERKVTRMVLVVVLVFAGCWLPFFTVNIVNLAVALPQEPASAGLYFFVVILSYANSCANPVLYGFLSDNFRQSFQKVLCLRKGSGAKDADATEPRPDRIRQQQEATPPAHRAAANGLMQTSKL
Assay: cAMP assay for SST5R (inhibition of cAMP in CHO-K1 cells)
Type: cell-based
Settings: Table B; inhibition of cAMP via human SST5 receptor; read-out: SST5 potency
pEC50: −log10 of the molar value.

// solved cases for pEC50 follow
N#Cc1ncc(C(=O)NC23CC(C2)C3)c(N2CC[C@H](N)C2)c1-c1ccc(F)c(F)c1 [1-66] : > 8.00
Cc1ncc(C(=O)N[C@@H](C)C2CC2)c(N2CC[C@](C)(N)C2)c1-c1cc(F)cc(F)c1 [1-122] : > 8.00
Cc1ncc(C(=O)N[C@@H](C)C2CC2)c(N2CC[C@](C)(N)C2)c1-c1cccc(F)c1 [1-124] : > 8.00
CC(NC(=O)c1cnc(C#N)c(-c2cc(F)cc(F)c2)c1N1CC[C@](C)(N)C1)c1ccon1 (stereo partly shown) [1-132] : > 8.00
CC(NC(=O)c1cnc(C#N)c(-c2cc(F)cc(F)c2)c1N1CC[C@H](N)C1)C(F)(F)F (stereo partly shown) [1-226] : > 8.00

Hi, could you look up pEC50 for each item in my list?
1. COc1ncc(C(=O)NC23CC(C2)C3)c(N2CC[C@](C)(N)C2)c1-c1cc(F)cc(F)c1 [1-130]
2. C[C@H](NC(=O)c1cnc(C#N)c(-c2cc(F)cc(F)c2)c1N1CC[C@](C)(N)C1)c1ccccn1 [1-103]
3. C[C@]1(N)CCN(c2c(C(=O)NC3CCCCCC3)ccnc2-c2cc(F)cc(F)c2)C1 [3-6]
4. COc1cc(C#N)cc(-c2c(C)ncc(C(=O)NC3CC(F)(F)C3)c2N2CC[C@](C)(N)C2)c1 [1-269]
5. C[C@H](NC(=O)c1cnc(C#N)c(-c2ccn(C)n2)c1N1CC[C@](C)(N)C1)C1CC1 [1-121]
6. COc1ncc(C(=O)NC23CC(F)(C2)C3)c(N2CC[C@](C)(N)C2)c1-c1cc(F)cc(F)c1 [1-273]
7. Cc1ncc(C(=O)N[C@@H](C)C(F)(F)F)c(N2CC[C@](C)(N)C2)c1-c1ccc(F)c(Cl)c1 [1-287]

1: > 8.00; 2: > 8.00; 3: > 8.00; 4: > 8.00; 5: > 8.00; 6: > 8.00; 7: > 8.00
